Attribution: the RNAGym collection of RNA variant scans (doi:10.7554/elife.90254)

Quick reference: self-cleavage of the listed items.
B1: LINE1-full (parent)
chain: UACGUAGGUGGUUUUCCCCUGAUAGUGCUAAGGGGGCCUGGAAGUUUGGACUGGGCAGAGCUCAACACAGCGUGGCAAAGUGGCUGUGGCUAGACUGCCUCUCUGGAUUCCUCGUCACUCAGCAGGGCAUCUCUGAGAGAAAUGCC

- Variants of: B1
- procedureText: self-cleavage, relative activity (ratio to wild type); higher = more cleavage; in vitro, sequencing; the parent is a self-cleaving ribozyme
Respond numerically, and do not add a unit to the figure.

# count of solved cases: 5
input: Please give measured self-cleavage of the following entry: A121G U130C
output: 1.14

input: Check the records and state self-cleavage for A42G U130A
output: 1.47

input: Give me measured self-cleavage, please, for this variant: U5C A141G
output: 0.92

input: Consider the variant A31G A42G and give its recorded self-cleavage.
output: 0.96

input: For the variant U102C U109C , report self-cleavage.
output: 1.38

---
input: Give the value of self-cleavage reported for the following: A59G G88A
output: 0.06

input: Assign self-cleavage to the following record: U15C U52C
output: 1.14

input: In one line, give reported self-cleavage of the entry A92U U100C .
output: 0.9

input: Tell us which self-cleavage value is on record for G49A U119A
output: 1.15

input: Identify measured self-cleavage corresponding to G122A A140G
output: 0.53

input: Name the recorded self-cleavage of the variant listed here: U115G U119A
output: 1.36
